Listing of recorded composite z-score by entry.
Test system: XIP peptide (Xip251-270)
assayProcedure: compounds binding XIP fragment 251-270 – biochemical, small-molecule microarray, fluorescence 635/667 nm, 0.5 µg/mL protein, primary screen (AID 1183)
assaySetup: fluorescence 635 nm, higher = more signal
Form rule: numeric answer, no unit written next to it.

Below are worked cases with known answers.
Entry CCOC(=O)C1=CC[C@@H](c2cccc(Br)c2)N(S(=O)(=O)c2ccc(C)cc2)[C@H]1c1ccc([N+](=O)[O-])cc1 : reported composite z-score = ?
0.707

Entry Cc1ccc(F)cc1S(=O)(=O)N[C@@H]1CCN(C(=O)c2ccc(OC(C)C)cc2)C1 : reported composite z-score = ?
0.805

Entry COC(=O)[C@@]1(Cc2ccccc2)[C@H]2c3cc(C(=O)N(C)C)n(Cc4ccc(O)c(OC)c4)c3C[C@H]2CN1C(=O)c1ccccc1 : reported composite z-score = ?
0.664

Entry COCCOC(=O)N1C(=O)[C@@]2(c3cc(C#CCNC(N)=O)ccc31)[C@H](C(=O)N1CCCCCCC1)[C@H]1C(=O)O[C@H](c3ccccc3)[C@H](c3ccccc3)N1[C@@H]2c1ccc(OCCO)cc1 : reported composite z-score = ?
0.28

Now, please, on to the next compound.
Entry COC(=O)c1ccc(OC)c(/C=C\CC(CCc2ccccc2)OC(C)=O)c1 (stereo not given) : reported composite z-score = ?
-0.187

* * *

assayedTarget: Torsin-1A (Homo sapiens) (UniProt O14656)
Sequence (O14656 whole entry, looked up): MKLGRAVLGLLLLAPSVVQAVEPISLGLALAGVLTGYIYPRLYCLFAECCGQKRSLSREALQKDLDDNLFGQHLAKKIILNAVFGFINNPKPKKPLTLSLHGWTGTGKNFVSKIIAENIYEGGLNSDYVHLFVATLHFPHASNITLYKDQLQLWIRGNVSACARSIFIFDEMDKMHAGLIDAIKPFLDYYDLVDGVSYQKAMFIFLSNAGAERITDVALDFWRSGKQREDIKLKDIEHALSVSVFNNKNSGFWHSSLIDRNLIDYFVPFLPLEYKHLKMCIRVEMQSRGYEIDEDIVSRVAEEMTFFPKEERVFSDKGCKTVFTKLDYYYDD
assayProcedure: torsin A mutant lysate binding on microarrays – cell lysate, small-molecule microarray, COS7 lysate, 635/667 nm fluorescence, primary screen (AID 1150);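 further: score pools 667 nm emission and signal to noise measuring lysate protein binding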
assaySetup: COS7 hTOR1A mutant lysate, 635 nm fluorescence, higher = more signal
measurementType: composite z-score
Form rule: numeric answer, no unit written next to it.

Entry CCOC(=O)C[C@H]1[C@H](OC(=O)Cc2ccc3c(c2)OCO3)[C@@H](NC(=O)c2ccccc2)c2cc(OCCCO)ccc2N1C(=O)c1ccccc1 : reported composite z-score = ?
0.403

---
Entry CCCc1cc2c(n1Cc1ccc(OC)cc1)C(C)C1CN(C(=O)c3ccccc3)C(C)(C(=O)OC)C21 (stereo not drawn) : reported composite z-score = ?
0.773

Entry COC(=O)[C@@]1(Cc2ccccc2)[C@H]2c3cc(C(=O)N4CCCC4)n(Cc4ccc(OC(F)(F)F)cc4)c3C[C@H]2CN1C(=O)c1ccccc1 : reported composite z-score = ?
0.969

* * *

Listing of recorded composite z-score by entry.
Test system: PRMT1 (protein arginine N-methyltransferase 1)
assayProcedure: small molecules binding arginine methyltransferase PRMT1 – biochemical, small-molecule microarray, 635 nm fluorescence, primary screen (AID 1088);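 further: binding of Prmt1 protein to compounds spotted on small-molecule microarray slides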
assaySetup: higher = more signal
Form rule: numeric answer, no unit written next to it.

Entry COCCCNC(=O)[C@@H]1c2ccccc2C(=O)N(c2ccc(C)cn2)[C@H]1c1ccc(CO)cc1 : reported composite z-score = ?
-0.0842

---
Entry N#Cc1ccc(NN2C(C(O)c3ccco3)C=CC3C(=O)N(c4ccccc4)C(=O)C32)cc1 (stereo not drawn) : reported composite z-score = ?
0.327

Entry O=C1O[C@H](c2ccccc2)[C@H](c2ccccc2)N2[C@H]1[C@@H](C(=O)N1CCCCCCC1)[C@]1(C(=O)Nc3ccccc31)[C@H]2c1ccc(O)cc1 : reported composite z-score = ?
1.55

* * *

assayProcedure: budding yeast growth modifiers under rapamycin – strain BY4716, OD600, 96 h, primary screen (AID 1091)
assaySetup: S. cerevisiae BY4716 + rapamycin, higher = more signal, called active from +8 up or from −8 down
measurementType: z-score
Form rule: numeric answer, no unit written next to it.

Entry COCCCNC(=O)[C@@H]1c2ccccc2C(=O)N(c2ccc(C)cn2)[C@H]1c1ccc(CO)cc1 : reported z-score = ?
-0.19

Entry COC(=O)[C@@]1(Cc2ccccc2)[C@H]2c3cc(C(=O)N(C)C)n(Cc4ccccn4)c3C[C@H]2CN1C(=O)c1ccccc1 : reported z-score = ?
0.963

---
Entry CC(C)C[C@@H]1NC(=O)[C@@H]2C[C@H](C(=O)NCCCC[N+](C)(C)C)[C@H](c3cccc(OCCO)c3)N2C1=O : reported z-score = ?
-0.567

* * *

Test system: wheat germ agglutinin (Triticum aestivum), Alexa647-labelled
assayProcedure: Alexa647-WGA lectin binding to printed small molecules – biochemical, small-molecule microarray, 635/667 nm fluorescence, artefact control for SMM control-protein annotation, profiling panel (AID 1140);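 further: score merges 667 nm feature emission with signal to noise over triplicate slides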
assaySetup: WGA-A647 binding, 635 nm fluorescence, higher = more signal
Think of 0.8 as a floor: if composite z-score stands on it or above, it is criterion met; beneath it, criterion not met.

Confirm if composite z-score reported for the compound CCCC[C@@H](O)C1=C(COc2ccccc2)Cn2c(=O)n(-c3ccccc3)c(=O)n2[C@H]1CO is 0.8 or above.
criterion not met

Confirm if composite z-score reported for the compound C=CCN1C(=O)[C@@]2(O[C@@H](CCn3cc([C@H](O)c4ccccc4)nn3)[C@H]([Si](C)(C)c3ccc(OC)cc3)[C@H]2C)c2cc(NC(=O)c3ccc(OC)cc3)ccc21 is 0.8 or above.
criterion not met

Confirm if composite z-score reported for the compound COC(=O)c1ccc(OC)c(/C=C\CC(CCc2ccccc2)OC(C)=O)c1 (configuration not stated) is 0.8 or above.
criterion not met

Confirm if composite z-score reported for the compound CCOC(=O)C[C@H]1[C@H](OC(=O)Cc2ccc3c(c2)OCO3)[C@@H](NC(=O)c2ccccc2)c2cc(OCCCO)ccc2N1C(=O)c1ccccc1 is 0.8 or above.
criterion met

Confirm if composite z-score reported for the compound CC(C)C(CO)N1C(=O)[C@@H]2[C@H]3C(=O)OCC=C[C@H]3OC23C=CCN(CCN2CCOCC2)C(=O)[C@@H]13 (some centres not stated) is 0.8 or above.
criterion not met

---
Confirm if composite z-score reported for the compound CC(C)(C)OC(=O)CC[C@@]1(C(=O)N2CCCCC2)N=C(c2ccc(OCCCO)cc2)O[C@@H]1c1ccccc1N=[N+]=[N-] is 0.8 or above.
criterion met

Confirm if composite z-score reported for the compound C=CCNC(=O)[C@H]1[C@@H]2C(=O)O[C@@H](c3ccccc3)[C@@H](c3ccccc3)N2[C@@H](c2ccc(OCCO)cc2)[C@]12C(=O)N(C(=O)OCCOC)c1ccc(C#CC3=CCCCC3)cc12 is 0.8 or above.
criterion met

Confirm if composite z-score reported for the compound COCCOC(=O)N1C(=O)[C@@]2(c3cc(C#CCCO)ccc31)[C@H](C(=O)N1CCc3cc(OC)c(OC)cc3C1)[C@H]1C(=O)O[C@H](c3ccccc3)[C@H](c3ccccc3)N1[C@@H]2c1ccc(OCCO)cc1 is 0.8 or above.
criterion not met

Confirm if composite z-score reported for the compound COc1ccc(C#Cc2ccc3c(c2)[C@]2(C(=O)N3)[C@H](C(N)=O)[C@H]3C(=O)O[C@H](c4ccccc4)[C@H](c4ccccc4)N3[C@@H]2c2ccc(O)cc2)cc1 is 0.8 or above.
criterion not met

* * *

assayProcedure: calcein-AM signal in unstimulated myeloma cells – cell-based, calcein-AM fluorescence, 48 h, PK04 Diversity Set, profiling panel (AID 1166);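 further: cells grown under basal conditions without added stimulus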
assaySetup: RPMI8226 myeloma viability, higher = more signal
measurementType: z-score
Form rule: numeric answer, no unit written next to it.

Entry O=C1C[C@@](C(=O)NCc2ccccc2)(c2ccc([N+](=O)[O-])cc2)[C@@H](c2ccc(CO)cc2I)N1C1CCCCC1 : reported z-score = ?
-1.22

Entry CC1CC/C=C\[C@H]2OC34C=CCN(Cc5ccccc5)C(=O)[C@H]3N(CCO)C(=O)[C@@H]4C2C(=O)O1 (stereo partly drawn) : reported z-score = ?
-0.105

Entry O=C(CS)NCCCCCNC(=O)[C@@H]1C[C@@H]2C(=O)N3CCC[C@H]3C(=O)N2[C@@H]1c1ccc(O)cc1 : reported z-score = ?
0.125

---
Entry O=C1NC(=O)C2C1C=CC(C(O)CCc1ccccc1)N2Nc1ccccn1 (stereo not drawn) : reported z-score = ?
1.02

Entry COc1cc(C(O)C2C=CC3C(=O)NC(=O)C3N2Nc2ccc(Cl)cc2Cl)cc(OC)c1OC (stereo not drawn) : reported z-score = ?
-1.44

Entry CC(C)c1ccc(NN2C(C(O)c3cccs3)C=CC3C(=O)N(c4ccccc4)C(=O)C32)cc1 (stereo not drawn) : reported z-score = ?
-0.476

Entry O=C1N(CCS(=O)(=O)c2ccccc2)Cc2ccccc2C[C@@]12COC(c1ccc(OCCCO)cc1)=N2 : reported z-score = ?
-1.53

Entry COCCCNC(=O)[C@@]1(Cc2ccccc2N=[N+]=[N-])N=C(c2ccc(OCCCO)cc2)O[C@H]1c1ccccc1CN=[N+]=[N-] : reported z-score = ?
-3.93

* * *

assayProcedure: probe aNOTCH2 binding on compound microarray – biochemical, small-molecule microarray, 635/667 nm fluorescence, primary screen (AID 1121);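 further: score merges feature fluorescence read at 667 nm with its signal to noise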
assaySetup: higher = more signal
Think of -0.08 as a floor: if composite z-score stands on it or above, it is yes; beneath it, no.

Reference set (6 entries):
Confirm if composite z-score reported for the molecule COC(=O)C(CC#Cc1ccc2c(c1)[C@]1(C(=O)N2)[C@H](C(=O)N2CCc3cc(OC)c(OC)cc3C2)[C@H]2C(=O)O[C@H](c3ccccc3)[C@H](c3ccccc3)N2[C@@H]1c1ccc(OCCO)cc1)C(=O)OC is -0.08 or above.
yes

Confirm if composite z-score reported for the molecule COCCOC(=O)N1C(=O)[C@@]2(c3cc(C#CC4(O)CCCCCC4)ccc31)[C@H](C(=O)NC[C@H](O)c1ccccc1)[C@H]1C(=O)O[C@H](c3ccccc3)[C@H](c3ccccc3)N1[C@@H]2c1ccc(OCCO)cc1 is -0.08 or above.
no

Confirm if composite z-score reported for the molecule N#Cc1ccc(NN2C(C(O)c3ccccc3)C=CC3C(=O)N(c4ccccc4)C(=O)C32)cc1 (stereo not given) is -0.08 or above.
yes

Confirm if composite z-score reported for the molecule COC(=O)[C@@]1(Cc2ccc(OC)cc2)[C@H]2c3cc(C(=O)N(C)C)n(CCF)c3C[C@H]2CN1C(=O)c1ccccc1 is -0.08 or above.
yes

Confirm if composite z-score reported for the molecule COC(=O)C(CC#Cc1ccc2c(c1)[C@]1(C(=O)N2)[C@H](c2ccc(O)cc2)N2[C@H](c3ccccc3)[C@H](c3ccccc3)OC(=O)[C@H]2[C@@H]1C(=O)O)C(=O)OC is -0.08 or above.
no

Confirm if composite z-score reported for the molecule Cc1ccc(F)cc1S(=O)(=O)N[C@@H]1CCN(C(=O)c2ccc(OC(C)C)cc2)C1 is -0.08 or above.
no

---
Confirm if composite z-score reported for the molecule COCCOC(=O)N1C(=O)[C@@]2(c3cc(C#CCNC(N)=O)ccc31)[C@H](c1ccc(OCCO)cc1)N1[C@H](c3ccccc3)[C@H](c3ccccc3)OC(=O)[C@H]1[C@@H]2C(=O)N1CCN(c2ncccn2)CC1 is -0.08 or above.
yes

Confirm if composite z-score reported for the molecule COC(=O)[C@@]1(Cc2ccccc2)[C@H]2c3cc(C(=O)N4CCCC4)n(CCO)c3C[C@H]2CN1C(=O)c1ccccc1 is -0.08 or above.
yes

Confirm if composite z-score reported for the molecule CCCCCCCCCCC(O)C1C=CC2C(=O)NC(=O)C2N1Nc1ccccn1 (stereo not given) is -0.08 or above.
yes

Confirm if composite z-score reported for the molecule C=CC[C@]1(C(=O)N2CCOCC2)N=C(c2ccc(OCCCO)cc2)O[C@H]1c1ccccc1CN=[N+]=[N-] is -0.08 or above.
yes

Confirm if composite z-score reported for the molecule COCC(=C=CC[C@@H](O)c1ccccc1OCCO)C[C@@H](O)c1ccccn1 is -0.08 or above.
no

Confirm if composite z-score reported for the molecule C=C(/C(=C/C[C@@H](OC(=O)c1ccncc1)c1cccc(OCCO)c1)c1cc(C(=O)OC)ccc1OC)C(C)C is -0.08 or above.
yes

Confirm if composite z-score reported for the molecule O=C1CSC(c2cccc([N+](=O)[O-])c2)N1c1ccccc1 (stereo not given) is -0.08 or above.
no

Confirm if composite z-score reported for the molecule C[C@]12C(=O)N(CCCO)[C@@H]3C(=O)N(c4ccc(Cl)cc4)CC=CC31O[C@@H]1/C=C\CCCOC(=O)C12 (stereo not given in full) is -0.08 or above.
no
